- tested.on: Bcl-2-like protein 10 (Homo sapiens)
- measurement.notes: TR3 peptide-Bcl-B binding displacers, biochemical primary FP assay, phenotype converters (AID 1240);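 also: 0% = Bcl-B with tracer peptide and DMSO and 100% = tracer peptide lacking Bcl-B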
- test.parameters: GST-Bcl-B / FITC-TR3 peptide fluorescence polarization; stronger effect = higher value; compound at 3.75 mg/L
Out of some 50,000 compounds screened, about 800 (1.6%) showed an effect of 50% or more. The list comes from a sample in which strong results are over-represented; it also holds close analogues and randomly drawn compounds.

compound | displacement
CCOC(=O)C1=C(C)N=c2s/c(=C\c3ccc(OC)c(OC)c3OC)c(=O)n2C1c1ccc(Cl)cc1 (stereo not given) | 152%
COc1ccccc1N1C(=O)NC(=O)/C(=C/c2c(OC)ccc3ccccc23)C1=O | 1.1%
CC(/C=C/c1ccc(N(C)C)cc1)=N\N=C(/N)SC1CC(=O)N(c2ccc(F)cc2)C1=O (stereo not given) | -8.3%
CCc1ccccc1NC(=O)c1c(NC(=O)c2ccccc2Br)sc2c1CCC2 | -4.1%
CCOC(=O)C1=C(C)N=c2s/c(=C\c3ccc(OC)cc3)c(=O)n2C1c1ccc(Cl)cc1 (stereo not given) | 18.8%
COc1cc(C=C2C(=O)NC(=O)NC2=O)ccc1OCCO | -2.4%
COc1ccc(N2C(=O)NC(=O)/C(=C/c3ccc(OCCOc4ccc(C)cc4)c(OC)c3)C2=O)cc1 | 12.8%
COc1cc(C=C2C(=O)NC(=O)NC2=O)ccc1OCCSc1ccc(C)cc1 | 64.1%
COc1ccccc1/C=C1/C(=O)NC(=O)N(c2ccccc2OC)C1=O | -2.3%
O=C(O)CCC(=O)Nc1ccc(S(=O)(=O)N2CCCCCC2)cc1 | 3%
COc1ccccc1N1C(=O)NC(=O)/C(=C\c2cc3ccccc3n2C)C1=O | 165%
COc1cc(C=C2C(=O)NC(=O)NC2=O)ccc1OCCOc1ccc(C)cc1 | 32.2%
N#Cc1c(NC(=O)c2ccc(S(=O)(=O)c3ccccc3)cc2)sc2c1CCCC2 | 83.9%
Cc1ccccc1NC(=O)c1c(NC(=O)c2ccccc2C)sc2c1CCCCC2 | 13%
COc1cc(/C=C2/C(=O)NC(=O)N(c3ccccc3)C2=O)ccc1OCC(=O)O | 6.2%
CCOc1ccc(/C=C2\C(=O)NC(=O)N(c3ccccc3C)C2=O)cc1Cl | 0.3%
O=C(/C=C/c1ccc([N+](=O)[O-])cc1)Nc1ccc(F)cc1 | -2.7%
CCOC(=O)C1=C(C)N=c2s/c(=C\c3cccc(OC)c3O)c(=O)n2C1c1ccccc1 (stereo not given) | -0.2%
CCOC(=O)C1=C(C)N=c2s/c(=C\c3ccc(OC)c(O)c3)c(=O)n2C1c1ccc(Cl)cc1 (stereo not given) | -5.3%
N#Cc1c(NC(=O)c2ccc(C(=O)O)cc2C(=O)O)sc2c1CCCC2 | 11%

---

- tested.on: Bcl-2-like protein 10 (Homo sapiens) (UniProt Q9HD36)
- Sequence (Q9HD36 whole entry, looked up): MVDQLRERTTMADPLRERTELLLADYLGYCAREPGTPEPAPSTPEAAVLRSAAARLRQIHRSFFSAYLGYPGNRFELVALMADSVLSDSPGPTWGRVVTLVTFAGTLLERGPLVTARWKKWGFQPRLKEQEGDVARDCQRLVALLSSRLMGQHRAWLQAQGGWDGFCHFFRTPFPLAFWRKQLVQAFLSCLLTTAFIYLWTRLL
- measurement.notes: TR3 peptide-Bcl-B binding displacers, biochemical primary FP assay, phenotype converters (AID 1240);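 also: 0% = Bcl-B with tracer peptide and DMSO and 100% = tracer peptide lacking Bcl-B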
- test.parameters: GST-Bcl-B / FITC-TR3 peptide fluorescence polarization; stronger effect = higher value; compound at 3.75 mg/L
About 800 (1.6%) of roughly 50,000 compounds showed an effect of 50% or more. Only a selection was taken, and strong results are over-represented in it overall.

compound | tested.on | displacement [%]
N#CC(C#N)=Cc1cn(CC(=O)Nc2ccccc2)c2ccccc12 | Bcl-2-like protein 10 (Homo sapiens) (UniProt Q9HD36) | -17.6
CCCCOC(=O)c1cccc(NC(=O)c2ccc(OC)cc2)c1 | Bcl-2-like protein 10 (Homo sapiens) (UniProt Q9HD36) | -3.1
C=CCC(C)(CC=C)NC(=O)c1ccccc1[N+](=O)[O-] | Bcl-2-like protein 10 (Homo sapiens) (UniProt Q9HD36) | -6.9
FC(F)(F)c1ccccc1CN1CCN(C2CCCCC2)CC1 | Bcl-2-like protein 10 (Homo sapiens) (UniProt Q9HD36) | 1.4
O=C(Cn1cc(/C=C2/C(=O)NC(=O)N(c3ccccc3F)C2=O)c2ccccc21)Nc1ccccc1 | Bcl-2-like protein 10 (Homo sapiens) (UniProt Q9HD36) | 51.1
O=C(/C=C/c1ccc(-c2ccccc2[N+](=O)[O-])o1)Nc1ccc(NC(=O)c2ccco2)cc1 | Bcl-2-like protein 10 (Homo sapiens) (UniProt Q9HD36) | -0.2
O=[N+]([O-])c1ccc(-c2ccc(/C=C/c3ccc4ccccc4n3)o2)cc1 | Bcl-2-like protein 10 (Homo sapiens) (UniProt Q9HD36) | 14.8
O=[N+]([O-])c1ccccc1-c1ccc(/C=C/c2ccc3ccccc3n2)o1 | Bcl-2-like protein 10 (Homo sapiens) (UniProt Q9HD36) | 97.9
O=C(Cn1cc(/C=C2/C(=O)NC(=S)N(c3ccccc3F)C2=O)c2ccccc21)Nc1ccccc1 | Bcl-2-like protein 10 (Homo sapiens) (UniProt Q9HD36) | 30.7
CN1C(=O)C(=Cc2cn(CC(=O)Nc3ccccc3)c3ccccc23)C(=O)N(C)C1=O | Bcl-2-like protein 10 (Homo sapiens) (UniProt Q9HD36) | -6.8
Cc1ccc(/C=C/C(=O)Nc2cccc([N+](=O)[O-])c2)o1 | Bcl-2-like protein 10 (Homo sapiens) (UniProt Q9HD36) | 10.1
O=C(Cn1cc(/C=C2\NC(=O)NC2=O)c2ccccc21)Nc1ccccc1 | Bcl-2-like protein 10 (Homo sapiens) (UniProt Q9HD36) | 7.5
N#CC(C#N)=Cc1ccc(-c2ccc(S(N)(=O)=O)cc2)o1 | Bcl-2-like protein 10 (Homo sapiens) (UniProt Q9HD36) | -0.4
N#C/C(=C\c1ccc(-c2ccc(Br)cc2)o1)C(N)=O | Bcl-2-like protein 10 (Homo sapiens) (UniProt Q9HD36) | 4.6
O=C(CCN1C(=O)c2ccccc2C1=O)Nc1ccccc1C(=O)N1CCOCC1 | Bcl-2-like protein 10 (Homo sapiens) (UniProt Q9HD36) | 10
CCOC(=O)C1=C(C)N=c2s/c(=C\c3ccc(N(C)C)o3)c(=O)n2C1c1ccc(F)cc1 (stereo unspecified) | Bcl-2-like protein 10 (Homo sapiens) (UniProt Q9HD36) | -22.6
C=CCOC(=O)C1=C(C)NC(C)=C(C(=O)OCC=C)C1c1ccc(C)o1 | Bcl-2-like protein 10 (Homo sapiens) (UniProt Q9HD36) | 12.2
O=C(/C=C/c1ccc(-c2ccccc2[N+](=O)[O-])o1)Nc1cccnc1 | Bcl-2-like protein 10 (Homo sapiens) (UniProt Q9HD36) | 73.1
COc1ccc(N(Cc2ccc(C(=O)NC3CCCC3)cc2)S(=O)(=O)c2ccccc2)cc1 | Bcl-2-like protein 10 (Homo sapiens) (UniProt Q9HD36) | -14.5
CCCOP(=O)(OCCC)C(Nc1ccc(Cl)cc1)c1ccc(Br)cc1 (stereo unspecified) | Bcl-2-like protein 10 (Homo sapiens) (UniProt Q9HD36) | 17.1
CCOc1ccccc1NC(=O)c1cc(C(=O)OC)cc([N+](=O)[O-])c1 | Bcl-2-like protein 10 (Homo sapiens) (UniProt Q9HD36) | -7.1

---

- tested.on: Bcl-2-like protein 10 (Homo sapiens)
- measurement.notes: TR3 peptide-Bcl-B binding displacers, biochemical primary FP assay, phenotype converters (AID 1240);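 also: 0% = Bcl-B with tracer peptide and DMSO and 100% = tracer peptide lacking Bcl-B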
- test.parameters: GST-Bcl-B / FITC-TR3 peptide fluorescence polarization; stronger effect = higher value; compound at 3.75 mg/L
Hit rate of the full screen: of about 50,000 compounds, about 800 (1.6%) showed an effect of 50% or more. Many of the other results were omitted from the sample, so strong results are more common in it than they were.
In this section we review reported displacement values for a set of molecules.

molecule | readout.unit | displacement
COc1ccc(Br)cc1C(=O)Nc1ccc(C)cc1[N+](=O)[O-] | % | 27.4
Cc1noc2c1/C(=N\O)CC(c1ccccc1)C2 (stereo not drawn) | % | 2.6
Cc1c(NC(=O)c2cccs2)cccc1-c1nc2ncccc2o1 | % | 3.8
CC1=NN(C(=O)c2cccnc2)C(O)(c2ccccc2)C1 (stereo not drawn) | % | -6.3
COC(=O)Cn1cc(/C=C2\C(=O)NC(=O)N(c3cc(C)cc(C)c3)C2=O)c2ccccc21 | % | -4.6
O=C(/C=C/c1ccco1)Nc1ccc(-c2nc3ncccc3o2)cc1 | % | -8.2
Cc1ccc(SCCNC(=O)CN(c2ccc(C)cc2)S(C)(=O)=O)cc1 | % | -13.4
CCC(=O)/C(C)=C(\NC(=O)c1ccccc1)c1ccccc1 | % | -4.8
CCOC(=O)C1=C(C)OC(N)=C(C#N)C1c1ccc(OC)cc1 (stereo not drawn) | % | -10.8
O=C1NC(=O)N(c2ccccc2)C(=O)/C1=C/c1ccc(N2CCCC2)cc1 | % | -30.2
CCn1cc(/C=C2\C(=O)NC(=O)N(c3ccc(Cl)cc3)C2=O)c2ccccc21 | % | -18.6
COc1cc(C(=O)NCc2cccc3ccccc23)cc(OC)c1OC | % | 9.9
CN1CCN(CCCOc2ccc(Br)cc2)CC1 | % | -8.4
Cc1sccc1/C=N/NC(=O)C1CC1 | % | 3
CCN(CC)S(=O)(=O)c1ccc(NC(=O)c2ccco2)cc1 | % | -5.1
C/C(=N/NC(=O)COc1cccc(Cl)c1)c1ccccc1O | % | 9.1
CCCOc1cccc(C(=O)Nc2ccc(F)c([N+](=O)[O-])c2)c1 | % | 13.4
CCOC(=O)C1=C(N)Oc2c(ccc3ccccc23)C1c1ccc(OC)cc1 (stereo not drawn) | % | 108
O=C1NC(=O)N(c2ccc(Cl)cc2)C(=O)/C1=C/c1ccc(F)cc1 | % | 8.2
COc1ccc(Br)cc1/C=C\C(=O)Nc1ccc([N+](=O)[O-])cc1OC | % | 4.8
Cc1ccc(-c2nc3ncccc3o2)cc1NC(=O)/C=C/c1ccco1 | % | 116
Cc1cccc(NC(=O)C2C(c3ccccc3)=C2c2ccccc2)c1C | % | 5.5
C/C(=N\N=C1\NC(=O)C(CC(=O)Nc2ccc(Cl)cc2Cl)S1)c1ccc(Cl)cc1 (stereo not drawn) | % | 15.5
